Assay: 28 day twice daily topical administration, toxicokinetics, dermal irritancy and toxicity
Format: in vivo, Gottingen minipigs
Conditions: female, Gottingen, minipig, 20 mg/kg/day, Skin Concentration, Lower Dermis
REPORTED_METRIC: concentration at 29 day

Recorded concentration at 29 day (molecule CC(C)c1c(O)cc(/C=C/c2ccccc2)cc1O [3,5-Dihydroxy-4-isopropyl-trans-stilbene] ): 305 ng/g

----------
Assay: in vivo
Settings: minipig, topical or ocular, 4 % cream, BID
REPORTED_METRIC: Cmax (ng/mL)
Report as a plain number; the unit ng/mL is understood.

Cmax recorded for this compound, CC(C)c1c(O)cc(/C=C/c2ccccc2)cc1O [3,5-Dihydroxy-4-isopropyl-trans-stilbene] , is 7.13

----------
Assay: 28 day twice daily topical administration, toxicokinetics, dermal irritancy and toxicity
Format: in vivo, Gottingen minipigs
Details: female, Gottingen, minipig, in vivo, topical or ocular, 60 mg/kg/day
REPORTED_METRIC: AUC(0-t)
Kindly report the value followed by its unit.

Consider CC(C)c1c(O)cc(/C=C/c2ccccc2)cc1O [3,5-Dihydroxy-4-isopropyl-trans-stilbene] . Its measured AUC(0-t) is 4.84 ng·h/mL

----------
Test: 28 day twice daily topical administration, toxicokinetics, dermal irritancy and toxicity
Type: in vivo, Gottingen minipigs
Settings: female, Gottingen, minipig, 60 mg/kg/day, Skin Concentration, Lower Dermis
Protocol: Following dose application on each dosing day, the dose sites were semi-occluded for approximately 20±1 hours from the first dose and then gently washed before the next dose was applied.
REPORTED_METRIC: concentration at 29 day
Put down the number, then write its unit next to it.

The recorded concentration at 29 day for entry CC(C)c1c(O)cc(/C=C/c2ccccc2)cc1O [3,5-Dihydroxy-4-isopropyl-trans-stilbene] equals 3040 ng/g

----------
Assay: 28 day twice daily topical administration, toxicokinetics, dermal irritancy and toxicity
Assay type: in vivo, Gottingen minipigs
Details: male, Gottingen, minipig, 60 mg/kg/day, Skin Concentration, Epidermis/Upper Dermis
REPORTED_METRIC: concentration at 29 day (ng/g)
Give the value in ng/g but do not write ng/g after it.

Field concentration at 29 day (entry CC(C)c1c(O)cc(/C=C/c2ccccc2)cc1O [3,5-Dihydroxy-4-isopropyl-trans-stilbene] ) reads 10000

----------
Test: 28 day twice daily topical administration, toxicokinetics, dermal irritancy and toxicity
Format: in vivo, Gottingen minipigs
Conditions: female, Gottingen, minipig, 20 mg/kg/day, Skin Concentration, Epidermis/Upper Dermis
REPORTED_METRIC: concentration at 29 day
Form entry: enter the amount, then its unit.

Entry CC(C)c1c(O)cc(/C=C/c2ccccc2)cc1O [3,5-Dihydroxy-4-isopropyl-trans-stilbene] — recorded concentration at 29 day = 2270 ng/g

----------
Test: 28 day twice daily topical administration, toxicokinetics, dermal irritancy and toxicity
Assay type: in vivo, Gottingen minipigs
Details: male, Gottingen, minipig, 20 mg/kg/day, Skin Concentration, Epidermis/Upper Dermis
REPORTED_METRIC: concentration at 29 day (ng/g)
Please reply with the bare figure in ng/g and do not write the unit itself.

For reference, reported concentration at 29 day for CC(C)c1c(O)cc(/C=C/c2ccccc2)cc1O [3,5-Dihydroxy-4-isopropyl-trans-stilbene] stands at 3950

----------
Assay: 28 day twice daily topical administration, toxicokinetics, dermal irritancy and toxicity
Assay type: in vivo, Gottingen minipigs
Conditions: male, Gottingen, minipig, 10 mg/kg/day, Skin Concentration, Lower Dermis
REPORTED_METRIC: concentration at 29 day

# compound CC(C)c1c(O)cc(/C=C/c2ccccc2)cc1O [3,5-Dihydroxy-4-isopropyl-trans-stilbene] ; its concentration at 29 day = 166 ng/g
